pIC50: −log10 of the molar value.
pIC50 tested on APOBEC3G (A3G) (Homo sapiens): recorded values
Sequence (Q9HC16 whole entry): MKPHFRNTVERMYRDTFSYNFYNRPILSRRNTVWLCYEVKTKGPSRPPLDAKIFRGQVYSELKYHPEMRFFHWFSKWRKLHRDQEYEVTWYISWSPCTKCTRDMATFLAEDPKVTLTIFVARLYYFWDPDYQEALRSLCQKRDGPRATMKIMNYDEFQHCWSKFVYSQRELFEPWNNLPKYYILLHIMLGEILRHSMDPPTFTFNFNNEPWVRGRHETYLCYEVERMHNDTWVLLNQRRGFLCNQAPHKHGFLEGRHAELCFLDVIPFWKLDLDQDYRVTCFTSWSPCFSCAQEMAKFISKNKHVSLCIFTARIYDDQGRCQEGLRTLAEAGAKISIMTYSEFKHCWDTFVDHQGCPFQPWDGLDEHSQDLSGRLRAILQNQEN

{"Compound": "S=c1[nH]ncn1N=Cc1ccc(Br)cc1 [compound 1]", "Value qualifier": "=", "pIC50": 5.37}
{"Compound": "Cc1nnc(S)n1N [compound 5, 4-amino-5-methyl-1,2,4-triazole-3-thiol]", "Value qualifier": "=", "pIC50": 5.21}
{"Compound": "COc1ccc(C=Nn2c(C)nnc2S)cc1 [compound 8]", "Value qualifier": "=", "pIC50": 5.41}
{"Compound": "Nn1cnnc1S [compound 4, 4-amino-1,2,4-triazole-3-thiol]", "Value qualifier": "<", "pIC50": 4.00}
{"Compound": "Cc1nnc(S)n1NC(=O)c1ccccc1 [compound 9]", "Value qualifier": "=", "pIC50": 5.09}
